Exercise: state measured Growth Rate for each of the compounds provided.
test system: HEK-293T; experiment: Incucyte cell viability with HEK293T; type: toxicity, cell-based; conditions: human, 0 h, 10 µM, compound concentration 10 uM, replicate number 2, timepoint 0 hours; note: filed as whole numbers so only -1 and 0 and 1 occur

The recorded Growth Rate with HEK-293T for C[C@H](c1ccc(F)cc1)N(Cc1ccc(Cl)c(C(=O)O)c1)C(=O)c1cnc2ccccc2c1 was 0

Noted Growth Rate for O=C(O)[C@@H]1[C@@H](Cn2nnc3ccccc3c2=O)CC[C@H]1C(=O)c1ccc(OCCC2CCOCC2)cc1 , tested on HEK-293T: 1

HEK-293T Growth Rate of CC(C)NCC(O)COc1ccc(CCOCC2CC2)cc1.Cl (stereo not given) [BETAXOLOL HYDROCHLORIDE] is 0

So the reported Growth Rate for CS(=O)(=O)NC[C@H]1CC[C@H](Nc2nc3c(s2)CCSc2ccccc2-3)CC1 , on HEK-293T, turned out to be 0

Lab entry: HEK-293T assay, compound C=CC(=O)Nc1ccc2ncnc(Nc3ccc(OCc4cccc(F)c4)c(Cl)c3)c2c1.Cc1ccc(S(=O)(=O)O)cc1 , Growth Rate = 1

Tested on HEK-293T, the item CNC(=NCCSCc1csc(N=C(N)N)n1)NC#N showed Growth Rate equal to 0

Kindly note: HEK-293T, COc1cc2nccc(Oc3ccc(NC(=O)Nc4cc(C)on4)c(Cl)c3)c2cc1OC.O , Growth Rate value reported: 0

# value of Growth Rate, HEK-293T, item CCC(=O)N1CCOc2c(cc(-c3ccc(OC)c(OC)c3)cc2OC[C@H]2CCCN(C)C2)C1 = 1

Hey, HEK-293T data for CSc1ccc(C(=O)N[C@@H]2CCCC[C@@H]2NC(=O)CNC(=O)c2cc(C(F)(F)F)ccc2NC(=O)NC(C)C)cc1 : Growth Rate came out at 0

Growth Rate for HEK-293T with input CN1CCC[C@@H]1CCO[C@](C)(c1ccccc1)c1ccc(Cl)cc1.O=C(O)/C=C/C(=O)O [CLEMASTINE FUMARATE] equals 1

###

Could you please report measured Population Hoechst High Intensity Objects (%) for the items listed next?
tested on: U2OS; experiment: Multiplex assay against U2OS; assay type: toxicity, cell-based; conditions: human, 48 h, 10 µM, compound concentration 10 uM, replicate 2
Just the number in %, nothing appended.

Record for CN(C)C(=O)/C(C#N)=C/c1ccc(-c2nc3cnc4[nH]ccc4c3n2C2CCCCC2)o1 under target or system U2OS: Population Hoechst High Intensity Objects (%) reported as 48

Measured on U2OS, Cc1[nH]c(/C=C2\C(=O)Nc3ccc(S(=O)(=O)N(C)c4cccc(Cl)c4)cc32)c(C)c1C(=O)N1CCN(C)CC1 has a documented Population Hoechst High Intensity Objects (%) of 15

Given the compound C[C@@H](NCCCc1cccc(C(F)(F)F)c1)c1cccc2ccccc12.Cl [CINACALCET HYDROCHLORIDE] and test system U2OS, the measured Population Hoechst High Intensity Objects (%) is 22

# Population Hoechst High Intensity Objects (%) measured on U2OS for item CC[C@H](C)C(=O)O[C@H]1C[C@@H](C)C=C2C=C[C@H](C)[C@H](CC[C@@H]3C[C@@H](O)CC(=O)O3)[C@H]21 = 7

Let me check: CN1CCC[C@@H]1CCO[C@](C)(c1ccccc1)c1ccc(Cl)cc1.O=C(O)/C=C/C(=O)O [CLEMASTINE FUMARATE] , system U2OS, measured Population Hoechst High Intensity Objects (%) is 15

Record Cc1csc2c(N[C@@H](C)CN3CCN(S(=O)(=O)c4ccc(Cl)c(Cl)c4)CC3)ncnc12 / U2OS, Population Hoechst High Intensity Objects (%) recorded as 7

Entry COc1ncc(-c2ccc3nccc(-c4ccnnc4)c3c2)cc1NS(=O)(=O)c1ccc(F)cc1F : Population Hoechst High Intensity Objects (%) on U2OS = 18

Entry CCn1c(=O)c(-c2ccc(Cl)cc2Cl)cc2cnc(Nc3ccc(N4CCNCC4)c(F)c3)nc21 ; assay system U2OS; Population Hoechst High Intensity Objects (%) recorded at 56

Tested system U2OS; Population Hoechst High Intensity Objects (%) recorded for Cl.N#Cc1ccc2[nH]cc(CCCCN3CCN(c4ccc5oc(C(N)=O)cc5c4)CC3)c2c1 [VILAZODONE HYDROCHLORIDE] was 25

###

Consider the following compounds; for each one, report its Population Normal (%).
tested on: U2OS; test: Multiplex assay against U2OS; assay type: toxicity, cell-based; conditions: human, 48 h, 1 µM, compound concentration 1 uM, replicate 1
The reply should contain only the number, in %.

Entry Cc1c(-c2ccc(O)cc2)n(Cc2ccc(OCCN3CCCCCC3)cc2)c2ccc(O)cc12 [BAZEDOXIFENE] , Population Normal (%) reported as 92

// field: Population Normal (%); key: CN(C)C(=O)N[C@H]1CC[C@H](CCN2CCN(c3cccc(Cl)c3Cl)CC2)CC1.Cl [CARIPRAZINE HYDROCHLORIDE] ; value = 93

// sample Cc1nc(-c2ccc(-c3ccc(C(=O)N4CCc5cc6c(cc54)C4(CCN(C)CC4)CO6)cc3)c(C)c2)no1 [SB-224289] , its Population Normal (%) was 93

Entry COc1ncc(-c2ccc3nccc(-c4ccnnc4)c3c2)cc1NS(=O)(=O)c1ccc(F)cc1F [OMIPALISIB] ; Population Normal (%) = 87

For record Cn1cc(-c2[nH]c3cc(NC(=O)[C@H](N)C4CCCCC4)cc4c3c2C=NNC4=O)cn1 the listed Population Normal (%) is 96

Query CN1CCC[C@@H]1CCO[C@](C)(c1ccccc1)c1ccc(Cl)cc1.O=C(O)/C=C/C(=O)O [CLEMASTINE FUMARATE] yields Population Normal (%) of 96

The measured Population Normal (%) associated with CN1CCN(c2ccc(OC(F)(F)F)c(Nc3ncc4c(n3)-c3c(c(C(N)=O)nn3CCO)CC4)c2)CC1 [ONVANSERTIB] reads 94

###

test system: HEK-293T; assay: Multiplex assay against HEK293T; type: toxicity, cell-based; details: human, 48 h, 10 µM, compound concentration 10 uM, replicate 2
metric_name: Population Membrane Permeable-Phenotype (%)
Numbers only; they are read as %.

Lab book: Population Membrane Permeable-Phenotype (%) of CC[C@H](C)C(=O)O[C@H]1C[C@@H](C)C=C2C=C[C@H](C)[C@H](CC[C@@H]3C[C@@H](O)CC(=O)O3)[C@H]21 noted as 6

The compound CCOCCn1cc(C(=O)Nc2ccc(-n3nc(-c4cccnc4)cc3C(F)(F)F)cn2)ccc1=O showed Population Membrane Permeable-Phenotype (%) equal to 6

Entry Cc1nc(-c2ccc(-c3ccc(C(=O)N4CCc5cc6c(cc54)C4(CCN(C)CC4)CO6)cc3)c(C)c2)no1 — recorded Population Membrane Permeable-Phenotype (%) = 6

###

test system: U2OS; test: Multiplex assay against U2OS; format: toxicity, cell-based; conditions: human, 24 h, 1 µM, compound concentration 1 uM, replicate 2
Consider the following molecules; for each one, report its Population Apoptotic (%).
Report the figure in % without appending any unit label.

// Cn1cc(C2=C(c3cn(C4CCN(Cc5ccccn5)CC4)c4ccccc34)C(=O)NC2=O)c2ccccc21 : Population Apoptotic (%) value = 62

Looking up C[C@@]1(C(=O)Nc2ccc(F)nc2)CCCN1c1nc(Nc2cc(C3CC3)n[nH]2)c2cccn2n1 , I see its Population Apoptotic (%) listed as 40

Entry under test: CN1CCN(CCOc2cc(OC3CCOCC3)c3c(Nc4c(Cl)ccc5c4OCO5)ncnc3c2)CC1 . Its Population Apoptotic (%) was 50

Lab note: CC(C)NCC(O)COc1ccc(CCOCC2CC2)cc1.Cl (configuration not stated) [BETAXOLOL HYDROCHLORIDE] gave Population Apoptotic (%) of 33

So for Cc1c(-c2ccc(O)cc2)n(Cc2ccc(OCCN3CCCCCC3)cc2)c2ccc(O)cc12 , the logged Population Apoptotic (%) turned out to be 11

Query Cl.N#Cc1ccc2[nH]cc(CCCCN3CCN(c4ccc5oc(C(N)=O)cc5c4)CC3)c2c1 [VILAZODONE HYDROCHLORIDE] yields Population Apoptotic (%) of 60

Summary for this molecule, CN1CCCC(n2nc(Cc3ccc(Cl)cc3)c3ccccc3c2=O)CC1.Cl (configuration not stated) [AZELASTINE HYDROCHLORIDE] : Population Apoptotic (%) is 50

###

Could you please report measured Population Fragmented Nuclei (%) for the items listed next?
tested on: Fibroblast; assay: Multiplex assay against human fibroblast; type: toxicity, cell-based; settings: 48 h, 10 µM, compound concentration 10 uM, replicate 2
Numeric answer only, unit % assumed.

The recorded Population Fragmented Nuclei (%) for entry Cn1cc(-c2[nH]c3cc(NC(=O)[C@H](N)C4CCCCC4)cc4c3c2C=NNC4=O)cn1 equals 62

CN1CCN(CCOc2cc(OC3CCOCC3)c3c(Nc4c(Cl)ccc5c4OCO5)ncnc3c2)CC1 has a reported Population Fragmented Nuclei (%) of 44

Item: CN(C)C(=O)N[C@H]1CC[C@H](CCN2CCN(c3cccc(Cl)c3Cl)CC2)CC1.Cl [CARIPRAZINE HYDROCHLORIDE] | Population Fragmented Nuclei (%): 33
